STUDY_TARGET: UniProt:A2TEF2
Sequence (A2TEF2 whole entry): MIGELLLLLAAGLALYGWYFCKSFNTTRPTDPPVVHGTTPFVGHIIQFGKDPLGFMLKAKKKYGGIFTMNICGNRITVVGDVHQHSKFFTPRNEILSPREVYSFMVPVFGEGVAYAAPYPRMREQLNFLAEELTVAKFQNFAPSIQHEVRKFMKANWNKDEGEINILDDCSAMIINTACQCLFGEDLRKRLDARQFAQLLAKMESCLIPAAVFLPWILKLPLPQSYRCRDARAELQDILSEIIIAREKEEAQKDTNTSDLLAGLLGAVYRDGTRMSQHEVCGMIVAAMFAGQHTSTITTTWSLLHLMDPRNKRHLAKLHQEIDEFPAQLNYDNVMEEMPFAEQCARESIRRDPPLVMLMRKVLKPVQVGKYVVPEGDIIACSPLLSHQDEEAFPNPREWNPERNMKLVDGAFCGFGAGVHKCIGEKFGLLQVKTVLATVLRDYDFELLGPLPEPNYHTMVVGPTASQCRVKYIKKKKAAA
TEST_READOUT: Kd (nM)

SMILES_REPR: O=C(N[C@@H](Cn1ccnc1)c1ccc(Cl)cc1Cl)c1ccc(-c2nnc(-c3ccccc3)o2)cc1
STUDY_TARGET: UniProt:A2TEF2
UNITS: nM
TEST_RESULT: 2
//
SMILES_REPR: O=C(N[C@@H](Cn1ccnc1)c1ccc(Cl)cc1Cl)c1ccc(-c2nnc(-c3ccc(F)c(F)c3)o2)cc1
STUDY_TARGET: UniProt:A2TEF2
UNITS: nM
TEST_RESULT: 1.7
//
SMILES_REPR: O=C(N[C@@H](Cn1ccnc1)c1ccc(-c2ccc(F)cc2)cc1F)c1ccc(-c2nnc(-c3ccccc3)o2)cc1
STUDY_TARGET: UniProt:A2TEF2
UNITS: nM
TEST_RESULT: 8.4
//
SMILES_REPR: O=C(N[C@@H](Cn1ccnc1)c1c(F)cc(-c2ccc(F)cc2)cc1F)c1ccc(-c2nnc(-c3ccccc3)o2)cc1
STUDY_TARGET: UniProt:A2TEF2
UNITS: nM
TEST_RESULT: 24

---

ASSAY_EXPLANATION: Drug uptake in BALB/c mouse brain at 25 mg/kg, po via gavage measured after 4 hrs post dose by […]
Assay type: ADME, organism-based
CONDITION_NOTES: read-out: Drug uptake
# strict inequality: concentration at 4 h < 1000 nM yields Satisfied, everything else yields Not satisfied

SMILES_REPR: O=C(N[C@@H](Cn1ccnc1)c1ccc(-c2ccccc2)cc1Cl)c1ccc(-c2nnc(-c3ccccc3)o2)cc1
CLASS_ASSIGNMENT: Satisfied
//
SMILES_REPR: O=C(N[C@@H](Cn1ccnc1)c1ccc(-c2ccc(F)cc2)cc1Cl)c1ccc(-c2nnc(-c3ccccn3)o2)cc1
CLASS_ASSIGNMENT: Satisfied
//
SMILES_REPR: O=C(N[C@@H](Cn1ccnc1)c1ccc(Cl)cc1Cl)c1ccc(-c2nnc(-c3ccc(F)c(F)c3)o2)cc1
CLASS_ASSIGNMENT: Not satisfied
//
SMILES_REPR: O=C(N[C@@H](Cn1ccnc1)c1ccc(-c2ccc(F)cc2)cc1Cl)c1ccc(-c2nnc(-c3ccncc3)o2)cc1
CLASS_ASSIGNMENT: Satisfied
//
SMILES_REPR: O=C(N[C@@H](Cn1ccnc1)c1ccc(Cl)cc1Cl)c1ccc(-c2nnc(-c3ccc(OCC(F)(F)F)cc3F)o2)cc1
CLASS_ASSIGNMENT: Satisfied
//
SMILES_REPR: [2H]c1c([2H])c([2H])c(-c2ccc([C@H](Cn3ccnc3)NC(=O)c3ccc(-c4nnc(-c5ccccc5)o4)cc3)c(Cl)c2)c([2H])c1[2H]
CLASS_ASSIGNMENT: Satisfied
//
SMILES_REPR: O=C(N[C@@H](Cn1ccnc1)c1c(F)cc(-c2ccc(F)cc2)cc1F)c1ccc(-c2nnc(-c3ccccc3)o2)cc1
CLASS_ASSIGNMENT: Not satisfied
//
SMILES_REPR: O=C(N[C@@H](Cn1ccnc1)c1ccc(-c2ccc(F)cc2)cc1Cl)c1ccc(-c2nnc(-c3ccccc3)o2)cc1
CLASS_ASSIGNMENT: Satisfied
//
SMILES_REPR: CS(=O)(=O)c1ccc(-c2ccc([C@H](Cn3ccnc3)NC(=O)c3ccc(-c4nnc(-c5ccccc5)o4)cc3)c(Cl)c2)cc1
CLASS_ASSIGNMENT: Satisfied
